These measurements were taken from PubChem BioAssay (NCI).

Form field: TGI (one value per entry).
- Tested on: TK-10 renal
- experimental_protocol: NCI tumour cell line growth inhibition, 48 h
measured_quantity: TGI

compound | data_value
CCCCC[C@H]1C/C=C2/C(=O)C(Cl)=C[C@@H]2C/C=C\CCCC(=O)O1 | 1.17 µM
C=C1C(=O)O[C@H]2[C@H]1CC/C(COC(=O)/C=C\C(=O)NCc1ccc(Cn3c(=O)sn(-c4ccc(Cl)cc4)c3=O)cc1)=C\CC[C@@]1(C)O[C@@H]21 | 1.5 µM
O=C(OCc1ccccc1)n1cccc1 | > 100 µM
CSc1cc(C(C)(C)C)ccc1C(O)c1ccc(C(C)(C)C)cc1SC | 30.6 µM
CC(=O)c1cccc(Nc2nc3ccccc3c3[nH]c4ccccc4c23)c1 | 37 µM
CC12CCC(=O)[C@@]1(C)CCCC2O (some centres undefined) | > 100 µM
COC(=O)C1=COC2OC3CC1C2C(C)O3 (centres undefined) | > 100 µM
CC(=O)OCC1OC(n2c(O)c(N=NC(N)=S)c3ccc([N+](=O)[O-])cc32)C(OC(C)=O)C1OC(C)=O (centres undefined) | > 100 µM
O=C(O)CCSC(=O)Nc1ccccc1 | > 100 µM
COC(=O)/C(C#N)=C/c1cc(C(C)(C)C)c(O)c(C(C)(C)C)c1 | 12.9 µM
CC(O)C1OC(n2ccc(=O)[nH]c2=O)CC1n1cncn1 (centres undefined) | > 100 µM
N#CC1=C(c2ccccc2)OC2(N)OC(c3ccccc3)=C(C#N)C12C#N (centres undefined) | > 100 µM
OCC1OC(n2cnc3c(NCc4ccccc4O)ncnc32)C(O)C1O (centres undefined) | > 52.6 µM
CCOC(=O)c1ccn2c(c1)c(C#N)c1nc3ccccc3nc12 | > 100 µM
CCC(=C(c1ccc(OCCN2CCCC2)cc1)c1ccc(OCCN2CCCC2)cc1)c1ccc(Cl)cc1 | 1.33 µM
O=c1[nH]c(=O)n(C2OC(CO)C(O)C2O)cc1F (centres undefined) | > 62.2 µM
CCOC(=O)c1csc(-c2cn(C)c3c2C(=O)C(OC)=CC3=O)n1 | > 100 µM
Cc1ccc(CN2CCN(Cc3ccc(C)o3)C(C)C2)o1 (centres undefined) | > 100 µM
O=C(c1ccc(Nc2nccc(NCCCCNc3ccnc4cc(Cl)ccc34)n2)cc1)N1CCCCC1 | 4.83 µM
Oc1cccc2ccc(Br)nc12 | > 100 µM
NC(Cc1c[nH]c2cccc(F)c12)C(=O)O (centres undefined) | > 4500 µM
COc1ccc(C2=NN(C(=O)c3ccc(Cl)cc3)C(O)(c3cc(F)c(Cl)cc3Cl)C2)cc1 (centres undefined) | > 100 µM
COc1cc2c(cc1O)C(=O)O[C@@H]1CC=C3CCN(C)[C@H]3[C@H]21 | > 25 µM
COc1cc([C@@H]2c3cc4c(cc3[C@@H](NC(=O)NO)[C@H]3COC(=O)[C@H]23)OCO4)cc(OC)c1O | > 100 µM
